Experiment notes: Cytotoxicity against human SKOV3 cells co-cultured with human mesothelial cells after 4 hrs by firefly luciferase assay relative to control
Format: functional, cell-based
Particulars: SK-OV-3, 4 h
pEC50: −log10 of the molar value.
The reader will find reported pEC50 values listed item by item below.
Metric name: pEC50

1) CC(C)(c1ccc(S(=O)(=O)/C=C/C#N)cc1)c1nnc(-c2ccccc2)o1    5.24
2) Cc1ccc(O)c(NC(=O)COc2ccc(S(=O)(=O)/C=C/C#N)cc2C(C)(C)C)c1    5.18
3) CC(C)(C)c1ccc(S(=O)(=O)/C=C/C#N)cc1 [BAY-11-7085]    5.30
4) CC(C)(C)c1cc(S(=O)(=O)/C=C/C#N)ccc1OCC(=O)NC1CCCCC1    5.21
5) Cc1ccc2oc(C(C)(C)c3ccc(S(=O)(=O)/C=C/C#N)cc3)nc2c1    5.25
6) CC(C)(c1ccc(S(=O)(=O)/C=C/C#N)cc1)c1nc2ccccc2o1    5.27
7) N#C/C=C/S(=O)(=O)c1ccc(C2(C(=O)NC3CCCCC3)CCC2)cc1    5.13
8) CC(C)(C(=O)NCc1ccccc1)c1ccc(S(=O)(=O)/C=C/C#N)cc1    5.06

----------
System: HT-29
Experiment notes: Reduction of cellular GSH level in human HT-29 cells incubated for 30 mins followed by co-culturing with human mesothelial cells measured after 5 hrs by […]
Type: functional, cell-based
Active and inactive are the calls of the source. The calls are words filed in the database; no cut-off is given here.
Outcome codes: true (1) = active, false (0) = inactive

1. C=CS(=O)(=O)c1ccc(C(C)(C)C)cc1    false (0)
2. CC(C)(C)c1ccc(S(=O)(=O)/C=C/C#N)cc1 [BAY-11-7085]    true (1)
3. C/C=C/S(=O)(=O)c1ccc(C(C)(C)C)cc1    false (0)
4. CN(Cc1ccccc1)C(=O)C(C)(C)c1ccc(S(=O)(=O)/C=C/C#N)cc1    true (1)
5. CC(C)(C(=O)NCc1ccc(F)cc1)c1ccc(S(=O)(=O)/C=C/C#N)cc1    true (1)

----------
Test system: A2780
Experiment notes: Induction of apoptosis in human A2780 cells assessed as increased cellular levels of cleaved caspase 3 at 5 uM after 4 hrs by immunoblot analysis
Assay type: functional, cell-based
The source made the active and inactive calls. No cut-off for these calls is given here.
Outcome codes: true (active), false (inactive)

1) CC(C)(C)c1cc(S(=O)(=O)/C=C/C#N)ccc1OCC(=O)NC1CCCCC1    true
2) CC(C)(C)c1ccc(S(=O)(=O)/C=C/C#N)cc1    true
3) CC(C)(C)c1ccc(S/C=C/C#N)cc1    false
4) CC(C)(C(=O)NCc1ccccc1)c1ccc(S(=O)(=O)/C=C/C#N)cc1    true
5) N#C/C=C/S(=O)(=O)c1ccc(C2(C(=O)NC3CCCCC3)CCC2)cc1    true
6) CC(C)(c1ccc(S(=O)(=O)/C=C/C#N)cc1)c1nc2ccccc2o1    true

----------
The reader will find reported EC50 values listed item by item below.
Experiment notes: Cytotoxicity against human BxPC3 cells co-cultured with human mesothelial cells after 4 hrs by firefly luciferase assay relative to control
Type: functional, cell-based
Particulars: BXPC-3, 4 h
Metric name: EC50 (µM)

1) CC(C)(C)c1ccc(S(=O)(=O)/C=C/C#N)cc1 [BAY-11-7085]    3.5
2) CC(C)(c1ccc(S(=O)(=O)/C=C/C#N)cc1)c1nnc(-c2ccccc2)o1    3.1
3) Cc1ccc2oc(C(C)(C)c3ccc(S(=O)(=O)/C=C/C#N)cc3)nc2c1    3.5
4) N#C/C=C/S(=O)(=O)c1ccc(C2(C(=O)NC3CCCCC3)CCC2)cc1    3.6
5) CC(C)(C(=O)NCc1ccccc1)c1ccc(S(=O)(=O)/C=C/C#N)cc1    3.7
6) CC(C)(C)c1cc(S(=O)(=O)/C=C/C#N)ccc1OCC(=O)NC1CCCCC1    3.4
7) CC(C)(c1ccc(S(=O)(=O)/C=C/C#N)cc1)c1nc2ccccc2o1    3.1
8) Cc1ccc(O)c(NC(=O)COc2ccc(S(=O)(=O)/C=C/C#N)cc2C(C)(C)C)c1    3.8

----------
Experiment notes: Cytotoxicity against human SU86 cells co-cultured with human mesothelial cells at 10 uM after 4 hrs by firefly luciferase assay relative to control
Type: functional
So basically: is Ratio under 0.3? Then 1 (yes). Not under? Then 0 (no).

1. CC(C)(C(=O)NCc1ccc(S(N)(=O)=O)cc1)c1ccc(S(=O)(=O)/C=C/C#N)cc1    0 (no)
2. CN(Cc1ccccc1)C(=O)C(C)(C)c1ccc(S(=O)(=O)/C=C/C#N)cc1    1 (yes)
3. Cc1cnc(C(C)(C)c2ccc(S(=O)(=O)/C=C/C#N)cc2)o1    0 (no)
4. CC(C)(C(=O)NCc1ccc(-n2cccn2)cc1)c1ccc(S(=O)(=O)/C=C/C#N)cc1    0 (no)
5. CC(C)(c1ccc(S(=O)(=O)/C=C/C#N)cc1)c1nc2ccccc2o1    1 (yes)
6. CC(C)(C)c1cccc(S(=O)(=O)/C=C/C#N)c1    1 (yes)

----------
Experiment notes: Cytotoxicity against human SU86 cells co-cultured with human mesothelial cells at 10 uM after 4 hrs by firefly luciferase assay relative to control
Assay type: functional
The reader will find reported Ratio values listed item by item below.
Metric name: Ratio

1. CC(C)(C(=O)NCc1ccccc1)c1ccc(S(=O)(=O)/C=C/C#N)cc1    0.21
2. C[C@@H](NC(=O)C(C)(C)c1ccc(S(=O)(=O)/C=C/C#N)cc1)c1ccccc1    0.21
3. N#C/C=C/S(=O)(=O)c1ccc(C2(C(=O)Nc3ccccc3)CCC2)cc1    0.35
4. CC(C)(c1ccc(S(=O)(=O)/C=C/C#N)cc1)c1nc2ccccc2[nH]1    1.04
5. C[C@H](NC(=O)C(C)(C)c1ccc(S(=O)(=O)/C=C/C#N)cc1)c1ccccc1    0.32
6. CC(C)(C(=O)NCc1cccc(F)c1)c1ccc(S(=O)(=O)/C=C/C#N)cc1    0.24
7. CC(C)(C(=O)NCc1ccccc1F)c1ccc(S(=O)(=O)/C=C/C#N)cc1    0.2
8. N#C/C=C/S(=O)(=O)c1ccc(C2(C(=O)NC3CCCCC3)CCC2)cc1    0.32
9. CC(C)(C)c1cc(S(=O)(=O)/C=C/C#N)ccc1OCC(=O)NC1CCCCC1    0.21
10. CC(C)(C)c1ccc(S(=O)(=O)/C=C/C#N)cc1    0.13
11. CC(C)(c1ccc(S(=O)(=O)/C=C/C#N)cc1)c1nnc(C2CCCCC2)o1    0.27
12. CC(C)(C)c1cc(S(=O)(=O)/C=C/C#N)ccc1OCC(=O)NCc1ccc(F)cc1    0.28
13. N#C/C=C/S(=O)(=O)c1ccc(C2(C(=O)NCc3ccc(Cl)cc3)CCOCC2)cc1    0.66
14. CC(C)(C(=O)NCc1ccc(F)cc1)c1ccc(S(=O)(=O)/C=C/C#N)cc1    0.18
15. COc1ccccc1CNC(=O)C(C)(C)c1ccc(S(=O)(=O)/C=C/C#N)cc1    0.21
16. N#C/C=C/S(=O)(=O)c1ccc(C2(C(=O)NCc3ccc(Cl)cc3)CCC2)cc1    0.36
17. N#C/C=C/S(=O)(=O)c1ccc(C2(C(=O)NC3CCCCC3)CCOCC2)cc1    1
18. Cc1ccc2oc(C(C)(C)c3ccc(S(=O)(=O)/C=C/C#N)cc3)nc2c1    0.2
19. CC(C)(C)c1cc(S(=O)(=O)/C=C/C#N)ccc1OCC(=O)O    0.97
20. N#C/C=C/S(=O)(=O)c1ccc(C2(C(=O)Nc3ccccc3)CCOCC2)cc1    0.92
21. CC(C)(c1ccc(S(=O)(=O)/C=C/C#N)cc1)c1nnc(Nc2ccccc2)o1    0.62
22. Cc1ccc2oc(COc3ccc(S(=O)(=O)/C=C/C#N)cc3C(C)(C)C)nc2c1    0.56
23. CC(C)(C(=O)N1CCCCC1)c1ccc(S(=O)(=O)/C=C/C#N)cc1    0.51
24. CC(C)(C(=O)NCC(F)F)c1ccc(S(=O)(=O)/C=C/C#N)cc1    0.81
25. CN(Cc1ccc(F)cc1)C(=O)C(C)(C)c1ccc(S(=O)(=O)/C=C/C#N)cc1    0.23
26. CC(C)(c1ccc(S(=O)(=O)/C=C/C#N)cc1)c1nnc(-c2ccccc2)o1    0.45
27. CC(C)(C(=O)N[C@H]1CCCCNC1=O)c1ccc(S(=O)(=O)/C=C/C#N)cc1    0.97
28. COc1cccc(CNC(=O)C(C)(C)c2ccc(S(=O)(=O)/C=C/C#N)cc2)c1    0.3
29. CC(C)(C(=O)NCc1ccc(S(C)(=O)=O)cc1)c1ccc(S(=O)(=O)/C=C/C#N)cc1    1.09
30. CC(C)(C(=O)Nc1ccccc1)c1ccc(S(=O)(=O)/C=C/C#N)cc1    0.52
31. Cc1ccc(O)c(NC(=O)COc2ccc(S(=O)(=O)/C=C/C#N)cc2C(C)(C)C)c1    0.38
32. N#C/C=C/S(=O)(=O)c1ccc(C2(C(=O)NC3CCCCC3)CC2)cc1    0.34
33. CC(C)(C(=O)NCC#Cc1ccccc1)c1ccc(S(=O)(=O)/C=C/C#N)cc1    0.5
34. CC(C)(C(=O)NC1CCCCC1)c1ccc(S(=O)(=O)/C=C/C#N)cn1    0.61
35. CC(C)(C(=O)NCCc1ccccc1)c1ccc(S(=O)(=O)/C=C/C#N)cc1    0.29
36. CCNc1nnc(C(C)(C)c2ccc(S(=O)(=O)/C=C/C#N)cc2)o1    0.96
37. CC(C)(C)c1ccc2cc(S(=O)(=O)/C=C/C#N)ccc2n1    0.45
38. COCCOCc1ccc(NC(=O)C(C)(C)c2ccc(S(=O)(=O)/C=C/C#N)cc2)cc1    0.66
39. COc1cccc(NC(=O)COc2ccc(S(=O)(=O)/C=C/C#N)cc2C(C)(C)C)c1    0.37
40. N#C/C=C/S(=O)(=O)c1ccc(C2(C(=O)NCc3ccc(F)cc3)CC2)cc1    0.64
